Measured on: VEGF165 (vascular endothelial growth factor 165) (Homo sapiens, UniProt P15692-4 P15692-4:27-191)
Sequence (P15692 other isoform, or with tags, fused parts or gaps): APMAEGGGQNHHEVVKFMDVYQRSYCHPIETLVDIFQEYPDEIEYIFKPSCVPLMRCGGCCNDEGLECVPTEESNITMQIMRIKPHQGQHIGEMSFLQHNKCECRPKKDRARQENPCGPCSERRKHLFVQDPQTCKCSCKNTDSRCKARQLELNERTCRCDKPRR
Experiment summary: SPR; no binding capacity; TBS, 20 C
Assay conditions: tags: R&D Systems, expressed in Sf21 insect cells; chain copies: 2 (inferred, homodimer); G4 predicted
Measurement name: binding result

Binder | binding result
TGTGGGGGTGCGCGGGCCGGGCAGG (ssDNA) [2R#11] | no binding
TGTGGGGTTGGACGGACCGGGTAGG (ssDNA) [2R#08] | no binding
TGTGCGGGTGGCCGGGGTGGCCTGC (ssDNA) [3R#07] | no binding
TGTGGGGCTGGGAGGTCGGGCCTGC (ssDNA) [3R#10] | no binding
TGTGGGGTTGGACGGGCCGTGTAGA (ssDNA) [2R#10] | no binding

## Task Using known records, supply binding result for TGTGCGGGGGGTGGGGGTGGTTCCC (ssDNA) [3R#04]
## Result no binding

## Task Using known records, supply binding result for TGTGGGGGGGGTGGGGGTGGACCGC (ssDNA) [3R#06]
## Result no binding
